System: Yamadazyma tenuis
assay.text: Antifungal activity against Candida tenuis VKM Y-70 at 0.1% after 48 to 72 hrs by agar disk diffusion technique
Assay type: functional
Overview of recorded diameter of the inhibition zone (DIZ) for various molecules
property: diameter of the inhibition zone (DIZ) (mm)

>>> quantitative_readout("CCCCOC(=O)CCSC1=C(N2CCC3(CC2)OCCO3)C(=O)c2ccccc2C1=O")
0
>>> quantitative_readout("COC(=O)CCSC1=C(N2CCC3(CC2)OCCO3)C(=O)c2ccccc2C1=O")
0
>>> quantitative_readout("O=C1C(Sc2c(Cl)c(Cl)c(Cl)c(Cl)c2Cl)=C(N2CCN(c3ccc(F)cc3)CC2)C(=O)c2ccccc21")
0
>>> quantitative_readout("CCCCOC(=O)CCSC1=C(Sc2ccc(O)cc2)C(=O)c2ccccc2C1=O")
0
>>> quantitative_readout("O=C1C(Cl)=C(N2CCN(c3ccc([N+](=O)[O-])cc3)CC2)C(=O)c2ccccc21")
8.5
>>> quantitative_readout("O=C1C(Sc2c(Cl)c(Cl)c(Cl)c(Cl)c2Cl)=C(N2CCOCC2)C(=O)c2ccccc21")
0
>>> quantitative_readout("O=C1C(Sc2c(Cl)c(Cl)c(Cl)c(Cl)c2Cl)=C(N2CCSCC2)C(=O)c2ccccc21")
0
>>> quantitative_readout("CCCCOC(=O)CCSC1=C(Sc2c(Cl)c(Cl)c(Cl)c(Cl)c2Cl)C(=O)c2ccccc2C1=O")
0
>>> quantitative_readout("CCOC1=C(N(CC)Cc2ccncc2)C(=O)c2ccccc2C1=O")
12.4
>>> quantitative_readout("COc1ccc(CSC2=C(SCc3ccc(OC)cc3)C(=O)c3ccccc3C2=O)cc1")
7.4
>>> quantitative_readout("CSc1ccc(SC2=C(Sc3ccc(SC)cc3)C(=O)c3ccccc3C2=O)cc1")
0
>>> quantitative_readout("CCCCOC(=O)CCSC1=C(SCCC(=O)OCCCC)C(=O)c2ccccc2C1=O")
0
>>> quantitative_readout("O=C1C(Sc2cc(Cl)ccc2Cl)=C(Sc2cc(Cl)ccc2Cl)C(=O)c2ccccc21")
0
>>> quantitative_readout("COC(=O)CCSC1=C(Sc2c(Cl)c(Cl)c(Cl)c(Cl)c2Cl)C(=O)c2ccccc2C1=O")
0
>>> quantitative_readout("O=C1C(Sc2c(Cl)c(Cl)c(Cl)c(Cl)c2Cl)=C(N2CCCCC2)C(=O)c2ccccc21")
0
>>> quantitative_readout("O=C1C(Cl)=C(N2CCN(CCO)CC2)C(=O)c2ccccc21")
0
>>> quantitative_readout("O=C1C(Sc2c(Cl)c(Cl)c(Cl)c(Cl)c2Cl)=C(N2CCCC2)C(=O)c2ccccc21")
0
>>> quantitative_readout("CC1CCC(C(C)(C)SC2=C(SC(C)(C)C3CCC(C)CC3=O)C(=O)c3ccccc3C2=O)C(=O)C1 (stereo not drawn)")
0

###

Overview of recorded MIC for various compounds
Test system: Aspergillus niger
assay.text: Antifungal activity against Aspergillus niger F-1119 after 24 to 72 hrs by serial dilution technique
Assay type: functional
property: MIC

>>> result("CSc1ccc(SC2=C(Sc3ccc(SC)cc3)C(=O)c3ccccc3C2=O)cc1")
"500 µg/mL"
>>> result("O=C1C(Cl)=C(N2CCN(c3ccc([N+](=O)[O-])cc3)CC2)C(=O)c2ccccc21")
"31.2 µg/mL"
>>> result("CCOC1=C(N(CC)Cc2ccncc2)C(=O)c2ccccc2C1=O")
"31.2 µg/mL"
